Subject Of Test: EGFR mutant Del19 (E746-A750) (Homo sapiens, UniProt P00533, DEL746-750)
Construct: truncated human JAK3, EGFR mutants such as del E746-A750; purchased Carna Biosciences
Sequence (P00533 with tags, fused parts or gaps DEL746-750 limits assumed): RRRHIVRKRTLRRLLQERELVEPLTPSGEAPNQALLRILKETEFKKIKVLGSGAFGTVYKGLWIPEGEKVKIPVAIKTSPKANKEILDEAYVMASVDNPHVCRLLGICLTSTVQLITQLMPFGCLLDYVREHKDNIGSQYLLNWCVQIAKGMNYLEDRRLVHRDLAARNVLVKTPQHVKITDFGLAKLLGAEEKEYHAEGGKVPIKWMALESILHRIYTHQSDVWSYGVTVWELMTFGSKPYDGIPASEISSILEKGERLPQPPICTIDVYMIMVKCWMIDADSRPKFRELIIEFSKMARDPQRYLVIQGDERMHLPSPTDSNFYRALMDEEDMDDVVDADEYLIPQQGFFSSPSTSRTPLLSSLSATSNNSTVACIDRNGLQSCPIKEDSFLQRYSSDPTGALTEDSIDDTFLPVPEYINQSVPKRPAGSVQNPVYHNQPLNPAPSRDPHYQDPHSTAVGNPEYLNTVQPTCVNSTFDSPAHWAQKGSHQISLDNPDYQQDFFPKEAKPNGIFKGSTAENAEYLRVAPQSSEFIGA
Method Summary: Kinase inhibition assay, EGFR del E746-A750;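 note: truncated human EGFR mutant kinase, two-hour preincubation with compound, then one-hour reaction with ATP and ULight-PolyGT peptide, LANCE Europium-antibody phosphorylation readout, IC50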
Type: biochemical
Assay Setup: read-out: EGFR mutants Del19 (E746-A750)
pIC50: −log10 of the molar value.
Consider the following compounds and their measured pIC50 readings.

Known pIC50 results, listed for orientation:
C=CC(=O)Nc1cc(Nc2nccc(-n3cc(CN4CCC4)c(C)n3)n2)c(OC)cc1-c1ccccc1OC [Compound 68] :: 6.70 to 7.70
C=CC(=O)Nc1cc(Nc2ncc(C)c(-n3cc(CN4CCC4)c(C(C)C)n3)n2)c(OC)cc1N1CCOCC1 [Compound 125] :: > 7.70
C=CC(=O)Nc1cc(Nc2nccc(-n3nc(C)c(CN4CCC4)c3C)n2)c(OC)cc1N1CCOCC1 [Compound 70] :: 6.70 to 7.70
C=CC(=O)Nc1cc(Nc2nccc(-n3cc(CN(C)CC)c(C)n3)n2)c(OC)cc1N1CCOCC1 [Compound 145] :: > 7.70
Cc1cn(-c2ccnc(Nc3ccc(-c4ccccc4)c(C)c3)n2)cc1CN1CC(O)C1 [Compound 150, reference compound] :: < 6.00

-- ask Report pIC50 for C=CC(=O)Nc1cc(Nc2nccc(-n3cc(CN(C)C)c(C4CC4)n3)n2)c(OC)cc1N(C)C1COC1 [Compound 108] please.
-- reply > 7.70

-- ask Report pIC50 for C=CC(=O)Nc1cc(Nc2ncc(C)c(-n3cc(CN4CCC4)cn3)n2)c(OC(C)C)cc1N1CCOCC1 [Compound 63] please.
-- reply 6.70 to 7.70
